# Test system: 843126-344-R-J1-PDC complex spheroid viability
# assay.notes: Anticancer human tumor 843126-344-R-J1-PDC patient-derived melanoma cell line growth inhibition [POLQ]
# test.parameters: second compound 3.16 µM; first compound 3.16 µM; stronger effect = lower value
test.readout: viability, T/C (%)
Numbers only here, please. The scale is %.

CCc1cc2c(N3CCc4c(cc(Cn5ccnc5)cc4-c4cn(C)nc4C(F)(F)F)C3=O)cc(C)nc2c(OC)n1 + Nc1ccc(C#CCN(C(=O)Cc2ncc(C(F)(F)F)cc2C(F)(F)F)c2ccc(F)cc2)nn1 : 66.2
CNCc1ccc(-c2[nH]c3cc(F)cc4c3c2CCNC4=O)cc1 + Cc1cccc(N(C)C(=O)C2C(O)CCN2c2nc(C)cc(C(F)(F)F)c2C#N)c1 : 87.5
Nc1ccn(C2OC(CO)C(O)C2(F)F)c(=O)n1 (stereo unspecified) + Nc1ccc(C#CCN(C(=O)Cc2ncc(C(F)(F)F)cc2C(F)(F)F)c2ccc(F)cc2)nn1 : 37.5
COc1cccc2c1C(=O)c1c(O)c3c(c(O)c1C2=O)CC(O)(C(=O)CO)CC3OC1CC(N)C(O)C(C)O1 (stereo unspecified) + Cc1cccc(N(C)C(=O)C2C(O)CCN2c2nc(C)cc(C(F)(F)F)c2C#N)c1 : 3.46
O=c1[nH]cc(F)c(=O)[nH]1 + Cc1cccc(N(C)C(=O)C2C(O)CCN2c2nc(C)cc(C(F)(F)F)c2C#N)c1 : 103

Here's the next entry for you.
(Q) Report viability, T/C for Nc1ccn(C2OC(CO)C(O)C2(F)F)c(=O)n1 (stereo unspecified) + Cc1cccc(N(C)C(=O)C2C(O)CCN2c2nc(C)cc(C(F)(F)F)c2C#N)c1 please.
(A) 34.9

###

The entries below are paired with their reported viability, T/C.
# Tested on: 843126-344-R-J1-PDC complex spheroid viability
# assay.notes: Anticancer human tumor 843126-344-R-J1-PDC cell line growth inhibition [POLQ];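 as to viability, T/C: spheroids exposed to drugs for seven days before readout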
# test.parameters: second compound 10 µM; first compound 1 µM; stronger effect = lower value

Below are worked cases with known answers.
CCc1c2c(nc3ccc(O)cc13)-c1cc3c(c(=O)n1C2)COC(=O)[C@]3(O)CC + COC1C(OC(N)=O)C(O)C(Oc2ccc3c(O)c(NC(=O)c4ccc(O)c(CC=C(C)C)c4)c(=O)oc3c2C)OC1(C)C : 43%
C=CC(=O)N1CCN(c2nc(=O)n(-c3c(C)ccnc3C(C)C)c3nc(-c4c(O)cccc4F)c(F)cc23)C(C)C1 (stereo not given) + COC1C(OC(N)=O)C(O)C(Oc2ccc3c(O)c(NC(=O)c4ccc(O)c(CC=C(C)C)c4)c(=O)oc3c2C)OC1(C)C : 98.3%
COc1cccc(OCCCN)c1-c1cc(Nc2cnc(C#N)cn2)n[nH]1 + Nc1ccc(C#CCN(C(=O)Cc2ncc(C(F)(F)F)cc2C(F)(F)F)c2ccc(F)cc2)nn1 : 30.4%
COc1cccc(OCCCN)c1-c1cc(Nc2cnc(C#N)cn2)n[nH]1 + Cc1cccc(N(C)C(=O)C2C(O)CCN2c2nc(C)cc(C(F)(F)F)c2C#N)c1 : 40.4%

(Q) Param item = Nc1ccn(C2OC(CO)C(O)C2(F)F)c(=O)n1 (stereo not given) + Nc1ccc(C#CCN(C(=O)Cc2ncc(C(F)(F)F)cc2C(F)(F)F)c2ccc(F)cc2)nn1 ; retrieve measured viability, T/C.
(A) 39.9%

###

# Test system: 843126-344-R-J1-PDC complex spheroid viability
# assay.notes: Anticancer human tumor 843126-344-R-J1-PDC cell line growth inhibition [POLQ];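 as to viability, T/C: spheroids exposed to drugs for seven days before readout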
# test.parameters: second compound 0.0316 µM; first compound 0.1 µM; stronger effect = lower value
test.readout: viability, T/C (%)
Numeric answer only, unit % assumed.

# example entries with known answers
C=CCn1c(=O)c2cnc(Nc3ccc(N4CCN(C)CC4)cc3)nc2n1-c1cccc(C(C)(C)O)n1 + Cc1cccc(N(C)C(=O)C2C(O)CCN2c2nc(C)cc(C(F)(F)F)c2C#N)c1 : 111
C#Cc1c(F)ccc2cc(O)cc(-c3ncc4c(N5CC6CCC(C5)N6)nc(OCC56CCCN5CC(F)C6)nc4c3F)c12 (stereo not given) + Cc1cccc(N(C)C(=O)C2C(O)CCN2c2nc(C)cc(C(F)(F)F)c2C#N)c1 : 81.1
O=C(c1cc(Cc2n[nH]c(=O)c3ccccc23)ccc1F)N1CCN(C(=O)C2CC2)CC1 + COC1C(OC(N)=O)C(O)C(Oc2ccc3c(O)c(NC(=O)c4ccc(O)c(CC=C(C)C)c4)c(=O)oc3c2C)OC1(C)C : 94.9
Cn1ncnc1[C@H]1c2n[nH]c(=O)c3cc(F)cc(c23)N[C@@H]1c1ccc(F)cc1 + Nc1ccc(C#CCN(C(=O)Cc2ncc(C(F)(F)F)cc2C(F)(F)F)c2ccc(F)cc2)nn1 : 82.6

(Q) For COc1cc(C2c3cc4c(cc3C(OC3OC5COC(C)OC5C(O)C3O)C3COC(=O)C23)OCO4)cc(OC)c1O (stereo not given) + Cc1cccc(N(C)C(=O)C2C(O)CCN2c2nc(C)cc(C(F)(F)F)c2C#N)c1 , what is its reported viability, T/C?
(A) 81.5

###

Known pIC50 of a selection of compounds
# Test system: 843126-344-R-J1-PDC complex spheroid viability
# assay.notes: Anticancer human tumor 843126-344-R-J1-PDC cell line growth inhibition [POLQ]
# test.parameters: curve of first compound; second compound 10 µM
Keep it numeric: pIC50 is minus log10 of the concentration in mol/L.

COc1cc(C2c3cc4c(cc3C(OC3OC5COC(C)OC5C(O)C3O)C3COC(=O)C23)OCO4)cc(OC)c1O (stereo not drawn) + Cc1cccc(N(C)C(=O)C2C(O)CCN2c2nc(C)cc(C(F)(F)F)c2C#N)c1 : 5.42

(Q) Name the recorded pIC50 for COc1cccc2c1C(=O)c1c(O)c3c(c(O)c1C2=O)CC(O)(C(=O)CO)CC3OC1CC(N)C(O)C(C)O1 (stereo not drawn) + Nc1ccc(C#CCN(C(=O)Cc2ncc(C(F)(F)F)cc2C(F)(F)F)c2ccc(F)cc2)nn1 .
(A) 6.54

###

# Test system: 843126-344-R-J1-PDC complex spheroid viability
# assay.notes: Anticancer human tumor 843126-344-R-J1-PDC cell line growth inhibition [POLQ];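 as to viability, T/C: spheroids exposed to drugs for seven days before readout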
# test.parameters: second compound 10 µM; first compound 3.16 µM; stronger effect = lower value
Attribute: viability, T/C

A selection of reference data follows.
CCCS(=O)(=O)Nc1ccc(F)c(C(=O)c2c[nH]c3ncc(-c4ccc(Cl)cc4)cc23)c1F + COC1C(OC(N)=O)C(O)C(Oc2ccc3c(O)c(NC(=O)c4ccc(O)c(CC=C(C)C)c4)c(=O)oc3c2C)OC1(C)C : 75.3%
CCc1cc2c(N3CCc4c(cc(Cn5ccnc5)cc4-c4cn(C)nc4C(F)(F)F)C3=O)ccnc2c(OC)n1 + Nc1ccc(C#CCN(C(=O)Cc2ncc(C(F)(F)F)cc2C(F)(F)F)c2ccc(F)cc2)nn1 : 80.2%
CC1COCCN1c1cc(-c2ccnn2C)c2ccnc(-c3ccn[nH]3)c2n1 (stereo not given) + Nc1ccc(C#CCN(C(=O)Cc2ncc(C(F)(F)F)cc2C(F)(F)F)c2ccc(F)cc2)nn1 : 36.9%
O=C(c1cc(Cc2n[nH]c(=O)c3ccccc23)ccc1F)N1CCN(C(=O)C2CC2)CC1 + Cc1cccc(N(C)C(=O)C2C(O)CCN2c2nc(C)cc(C(F)(F)F)c2C#N)c1 : 103%

(Q) Given O=c1[nH]cc(F)c(=O)[nH]1 + Cc1cccc(N(C)C(=O)C2C(O)CCN2c2nc(C)cc(C(F)(F)F)c2C#N)c1 , state its recorded viability, T/C.
(A) 111%

###

# Test system: 843126-344-R-J1-PDC complex spheroid viability
# assay.notes: Anticancer human tumor 843126-344-R-J1-PDC cell line growth inhibition [POLQ];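 as to viability, T/C: spheroids exposed to drugs for seven days before readout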
# test.parameters: second compound 0.0316 µM; first compound 0.0316 µM; stronger effect = lower value
# Method: Multicellular complex tumor spheroid response to Polymerase (POL) inhibitors (novobiocin, ART-558, RP6685) in combination with a variety of drugs and investigational agents in selected tumor cell lines The POL inhibitors (novobiocin, ART-558, and RP6685) were evaluated both individually and in combination with standard of care and investigational anticancer small molecules within a complex spheroid model of solid tumors. . […]
Rule: measured viability, T/C below 90% gets rule met; anything equal to or greater than 90% gets rule not met.

Answered examples (3):
C=CC(=O)N1CCN(c2nc(=O)n(-c3c(C)ccnc3C(C)C)c3nc(-c4c(O)cccc4F)c(F)cc23)C(C)C1 (stereo not given) + COC1C(OC(N)=O)C(O)C(Oc2ccc3c(O)c(NC(=O)c4ccc(O)c(CC=C(C)C)c4)c(=O)oc3c2C)OC1(C)C : rule not met
COc1cccc(OCCCN)c1-c1cc(Nc2cnc(C#N)cn2)n[nH]1 + Cc1cccc(N(C)C(=O)C2C(O)CCN2c2nc(C)cc(C(F)(F)F)c2C#N)c1 : rule met
CC(C)n1c(=O)n(C)c2cnc3cc(F)c(-c4ccc(OCCCN5CCCCC5)nc4)cc3c21 + COC1C(OC(N)=O)C(O)C(Oc2ccc3c(O)c(NC(=O)c4ccc(O)c(CC=C(C)C)c4)c(=O)oc3c2C)OC1(C)C : rule met

(Q) Given the entry CC1COCCN1c1cc(C2(S(C)(=N)=O)CC2)nc(-c2ccnc3[nH]ccc23)n1 (stereo not given) + Cc1cccc(N(C)C(=O)C2C(O)CCN2c2nc(C)cc(C(F)(F)F)c2C#N)c1 , would its reported viability, T/C be below 90%?
(A) rule not met

(Q) In plain terms, does CCc1cc2c(N3CCc4c(cc(Cn5ccnc5)cc4-c4cn(C)nc4C(F)(F)F)C3=O)ccnc2c(OC)n1 + COC1C(OC(N)=O)C(O)C(Oc2ccc3c(O)c(NC(=O)c4ccc(O)c(CC=C(C)C)c4)c(=O)oc3c2C)OC1(C)C come in under 90% for viability, T/C?
(A) rule not met
